pIC50: −log10 of the molar value.
Here we gather pIC50 data for Tyrosine-protein phosphatase non-receptor type 1 (Homo sapiens) reported by several publications.
Tag: 1.0 if measured pIC50 is not below 6, 0.0 if it is.

molecule	class_name
COc1cc(/C=C/c2cc(C(=O)O)c(O)c(-c3ccco3)c2)ccc1/C=C/c1cc(C(=O)O)c(O)c(-c2ccco2)c1	0.0
N#Cc1ccccc1S(=O)(=O)NC(Cc1ccc(C2CC(=O)NS2(=O)=O)cc1)c1nc2ccccc2[nH]1 (stereo unspecified)	1.0
CC(=O)O[C@H]1CC[C@@]2(C)C(=CC[C@H]3c4ccc([C@H](C)[C@@H]5NC[C@@H](C)C[C@H]5O)c(C)c4C[C@@H]32)C1	0.0
CC(=O)O[C@H]1[C@@H]2C(=O)c3c(C)cc(O)c4c3[C@@]1(COC4=O)C1=C2c2c(C)cc(O)c3c(=O)n(-c4ccc5ncccc5c4)cc(c23)C1=O	0.0
CC1=CC[C@H]2C(C)(C)CCC[C@]2(C)[C@H]1CC(O)CCc1ccccc1 (stereo partly specified)	0.0

For this molecule, is measured pIC50 6 or higher? O=C(O)/C=C/c1ccc(-c2nc(-c3ccc4oc5c(C(=O)O)cccc5c4c3)cs2)cc1
1.0

Given O=C(O)CN1C(=O)/C(=C/c2cccc(OCCc3ccccc3)c2)SC1=S , state whether its pIC50 is at least 6.
0.0

Form field: pIC50 at least 6? Entry: O=C(O)c1cc(/C=C/c2ccc(/C=C/c3cc(Br)c(O)c(C(=O)O)c3)cc2)cc(Br)c1O
0.0

For this molecule, is measured pIC50 6 or higher? CC(=O)Oc1ccc(O)c(C[C@]2(C)[C@@H](C)CC[C@]3(C)C(C)=CCC[C@@H]23)c1
0.0

pIC50 >= 6 for O=C(O)c1ccc(-c2nc(-c3ccc4oc5c(C(=O)O)cccc5c4c3)cs2)cc1 ?
1.0

----------
From various publications: pIC50 for Tyrosine-protein phosphatase non-receptor type 1 (Homo sapiens, UniProt P18031).
Formally, pIC50 is defined as -log10 of the concentration c, with c in mol/L.

Here is how some compounds turned out for pIC50.
compound	tgt	measurement_kind	meas_value
O=C1CC(c2ccc(CC(NS(=O)(=O)c3cccc(C(F)(F)F)c3)c3ncc(CCCCc4ccccc4)[nH]3)cc2)S(=O)(=O)N1 (stereo not drawn)	Tyrosine-protein phosphatase non-receptor type 1 (Homo sapiens, UniProt P18031)	pIC50	6.70
C=C1CC[C@@H]2[C@H]([C@@H]3Oc4c(C=O)c(O)c(C=O)c(O)c4[C@H](c4ccccc4)[C@@]3(C)CC[C@H]1O)C2(C)C	Tyrosine-protein phosphatase non-receptor type 1 (Homo sapiens, UniProt P18031)	pIC50	4.64
CCCCNCCCOc1cccc(O)c1C(=O)CC	Tyrosine-protein phosphatase non-receptor type 1 (Homo sapiens, UniProt P18031)	pIC50	4.72

Identify the measured pIC50 of O=C(O)c1ccc(CN2C(=O)S/C(=C\c3cccc(OCc4ccccc4)c3)C2=O)cc1 for Tyrosine-protein phosphatase non-receptor type 1 (Homo sapiens, UniProt P18031).
5.96

pIC50 of CCOC(=O)/C(C)=C\C(C)=C\c1csc([C@H](Cc2ccc(OCc3ccccc3)cc2)NC(=O)c2ccco2)n1 on Tyrosine-protein phosphatase non-receptor type 1 (Homo sapiens, UniProt P18031)?
4.74

Lab request: please report pIC50 under test system Tyrosine-protein phosphatase non-receptor type 1 (Homo sapiens, UniProt P18031) for C/C=C/C=C/C(=O)N1Cc2cc(OCCc3nc(/C=C/C(C)CCC)oc3C)ccc2C[C@H]1C(=O)O.CC(C)(C)N (stereo partly drawn)
5.85
